Each entry below carries its reported half-life.
Experiment: Rat pharmacokinetics in vivo (IV 1 mg/kg, PO 10 mg/kg)
Set-up: species or system Male rats [Sprague Dawley (SD)]
Conditions: Sprague Dawley, plasma; male SD rat, IV 1 mg/kg; read-out: IV t½ (converted)
Method: The pharmacokinetics of compounds were studied in vivo in rats at doses of 1 mg/kg (IV) and 10 mg/kg (PO). Male rats [Sprague Dawley (SD)] surgically prepared with a jugular vein cannula were treated with experimental compounds via intravenous administration (IV; n=3; 1 mg/kg) or oral administration (PO; n=3; 10 mg/kg). […] PK parameters were calculated from the resulting data.
Please give a number only; it is taken to be in h.

Please review the following examples before continuing.
compound="CCc1ccc(-c2nn3c(c2C(=O)N[C@H]2N=C(c4ccccc4)c4cccc(F)c4NC2=O)OCCC3)cn1 [Example 106]" reported_value=1.2
compound="C[C@H]1CCn2nc(-c3ccccc3F)c(C(=O)N[C@H]3N=C(c4ccccc4)c4cccc(F)c4NC3=O)c2O1 [Example 27]" reported_value=0.72

Please look at the following compound next.
stdin: Request the reported half-life associated with C[C@@H]1CCn2nc(-c3ccccc3F)c(C(=O)N[C@H]3N=C(c4ccccc4)c4cccc(F)c4NC3=O)c2O1 [Example 25]
stdout: 2.2

====

assay: cell toxicity CC50; type: cell-based; conditions: human; Hep-G2 cells; mean of at least two experiments; read-out: Cell Cytotoxicity CC50
readout: CC50

Please review the following examples before continuing.
molecule="CC(C)Nc1ccc(-c2nn3c(c2C(=O)N[C@H]2N=C(c4ccccc4)c4cccc(F)c4NC2=O)O[C@@H](C)CC3)cn1 [Example 69]" readout=CC50 reported_value="> 25 µM"
molecule="O=C(N[C@H]1N=C(c2ccccc2)c2cccc(F)c2NC1=O)c1c(-c2ccccc2F)nn2c1OCC(Cn1cccn1)C2 (stereo partly drawn) [Example 124]" readout=CC50 reported_value="> 25 µM"

stdin: Request the reported CC50 associated with CC1Cn2nc(-c3ccccc3F)c(C(=O)N[C@H]3N=C(c4ccccc4)c4cccc(F)c4NC3=O)c2O1 (stereo in doubt) [Example 163]
stdout: > 25 µM

====

tested on: Hep-G2 cells; test: cell toxicity CC50; assay type: cell-based; details: mean of at least two experiments, read-out: Cell Cytotoxicity CC50
readout: CC50

Please review the following examples before continuing.
molecule="O=C(N[C@H]1N=C(c2ccccc2)c2cccc(F)c2NC1=O)c1c(-c2ccccc2F)nn2c1OC(CO)CC2 (single isomer, unassigned) [Example 190-2]" reported_value="> 25 µM"
molecule="O=C(N[C@H]1N=C(c2ccccc2)c2ccccc2NC1=O)c1c(-c2c(F)cccc2F)nn2c1OC(CO)CC2 (single isomer, unassigned) [Example 188-2]" reported_value="> 25 µM"
molecule="O=C(N[C@H]1N=C(c2ccccc2)c2cccc(F)c2NC1=O)c1c(-c2c(F)cccc2F)nn2c1OC(CO)CC2 (single isomer, unassigned) [Example 189-2]" reported_value="> 25 µM"
molecule="O=C(N[C@H]1N=C(c2ccccc2)c2cccc(F)c2NC1=O)c1c(-c2c(F)cccc2F)nn2c1OCC(CO)C2 (single isomer, unassigned) [Example 129-2]" reported_value="> 25 µM"

stdin: GET /values?readout=CC50&system=Hep-G2 cells&item= O=C(N[C@H]1N=C(c2ccccc2)c2cccc(F)c2NC1=O)c1c(-c2ccccc2F)nn2c1OCC(CO)C2 (single isomer, unassigned) [Example 110-2]
stdout: > 25 µM
